# Lookup of reported self-cleavage keyed by entry
B1: LINE1-full (parent)
chain: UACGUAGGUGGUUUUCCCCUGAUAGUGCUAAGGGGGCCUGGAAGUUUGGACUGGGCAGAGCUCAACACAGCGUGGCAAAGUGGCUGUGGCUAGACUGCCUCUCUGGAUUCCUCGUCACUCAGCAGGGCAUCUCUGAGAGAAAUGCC

# Variants of: B1
# assayName: self-cleavage, relative activity (ratio to wild type); higher = more cleavage; in vitro, sequencing; the parent is a self-cleaving ribozyme
The response must contain the number and no unit.

Solved entries:
- U102C A136U: 1.8
- U39A U62C: 0.05

Identify measured self-cleavage associated with U46C U119C
1.13

Specify self-cleavage for A64U U87A and stop.
0.06
